The entries that follow carry Ki values tested on Muscarinic acetylcholine receptor M4 (Homo sapiens), drawn from several published reports.
Target: Muscarinic acetylcholine receptor M4 (Homo sapiens)
Sequence (P08173 whole entry): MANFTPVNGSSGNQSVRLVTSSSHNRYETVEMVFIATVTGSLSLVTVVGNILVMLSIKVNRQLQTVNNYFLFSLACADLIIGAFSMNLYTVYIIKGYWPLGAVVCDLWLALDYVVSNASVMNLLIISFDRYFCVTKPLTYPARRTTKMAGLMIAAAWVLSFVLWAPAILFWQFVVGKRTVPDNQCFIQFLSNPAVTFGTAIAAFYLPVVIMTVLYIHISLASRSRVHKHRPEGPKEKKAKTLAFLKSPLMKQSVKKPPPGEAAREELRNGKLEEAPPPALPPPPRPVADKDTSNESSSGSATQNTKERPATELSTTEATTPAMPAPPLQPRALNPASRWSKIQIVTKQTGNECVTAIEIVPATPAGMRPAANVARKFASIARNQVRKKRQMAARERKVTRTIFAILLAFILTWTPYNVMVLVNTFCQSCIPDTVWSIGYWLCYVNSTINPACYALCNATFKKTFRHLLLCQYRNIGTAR
Binary call on Ki with cut-off 1 µM: strictly below means YES, and equality or higher means NO.

## Input Field: below-cutoff. Rule: recorded Ki strictly less than 1 µM. Subject: CC(C)N(CC[C@H](c1ccccc1)c1cc(CCNC(=O)CCCCCNC(=O)COc2ccc(/C=C/C3=[N+]4C(=Cc5ccc(-c6cccs6)n5[B-]4(F)F)C=C3)cc2)ccc1O)C(C)C
## Output YES

## Input Field: below-cutoff. Rule: recorded Ki strictly less than 1 µM. Subject: CN1CCC=C(c2nsnc2OCCCCCCCCCCCCCC2CCN(CCCN3C(=O)CCc4ccccc43)CC2)C1
## Output YES

## Input Field: below-cutoff. Rule: recorded Ki strictly less than 1 µM. Subject: C[N+]1(CCCC(O)(c2ccccc2)c2ccccc2)CCN(CCCC(O)(c2ccccc2)c2ccccc2)CC1
## Output NO

## Input Field: below-cutoff. Rule: recorded Ki strictly less than 1 µM. Subject: COc1ccc(NC(=O)N2CCN(c3ccccc3OC)CC2)cc1N1CCN(C)CC1
## Output NO

## Input Field: below-cutoff. Rule: recorded Ki strictly less than 1 µM. Subject: O=C(CCN1CCCc2ccccc21)Nc1ccc(Cl)cc1
## Output NO

## Input Field: below-cutoff. Rule: recorded Ki strictly less than 1 µM. Subject: CC1CCc2ccccc2N1CC(=O)N1CCCC1 (centres undefined)
## Output NO

## Input Field: below-cutoff. Rule: recorded Ki strictly less than 1 µM. Subject: c1ccc(CCN[C@H]2C3C4CC5C6C4CC3C6C52)nc1 (some centres undefined)
## Output NO

## Input Field: below-cutoff. Rule: recorded Ki strictly less than 1 µM. Subject: c1coc([C@@H]2CCCN2)c1
## Output NO

* * *

The entries that follow carry pKi values tested on Muscarinic acetylcholine receptor M4 (Homo sapiens, UniProt P08173), drawn from several published reports.
Molecular target: Muscarinic acetylcholine receptor M4 (Homo sapiens, UniProt P08173)
Sequence (P08173 whole entry): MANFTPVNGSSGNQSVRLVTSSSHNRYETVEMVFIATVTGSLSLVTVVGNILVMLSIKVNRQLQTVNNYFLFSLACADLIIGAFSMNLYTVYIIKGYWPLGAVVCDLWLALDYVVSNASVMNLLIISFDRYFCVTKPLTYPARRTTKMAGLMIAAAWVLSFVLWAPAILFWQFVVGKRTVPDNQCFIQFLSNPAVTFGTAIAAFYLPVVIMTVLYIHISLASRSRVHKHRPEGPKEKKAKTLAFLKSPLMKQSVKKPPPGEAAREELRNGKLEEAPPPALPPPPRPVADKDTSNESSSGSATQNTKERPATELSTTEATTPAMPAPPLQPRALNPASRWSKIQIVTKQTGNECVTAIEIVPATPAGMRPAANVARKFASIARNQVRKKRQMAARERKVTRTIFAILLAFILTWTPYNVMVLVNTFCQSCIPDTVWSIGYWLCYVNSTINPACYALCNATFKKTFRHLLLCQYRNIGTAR
By convention, pKi is the negative base-10 log of a molar concentration.

Worked cases, pKi given:
>  <COMPOUND>
CC1(C)C(/C=C/C=C/C=C2/N(CCCCCC(=O)NCCCCC3CCN(CC(=O)N4c5ccccc5NC(=O)c5ccccc54)CC3)c3ccccc3C2(C)C)=[N+](CCCCS(=O)(=O)[O-])c2ccccc21

>  <ASSAY_ENDPOINT>
pKi

>  <NUMERIC_RESULT>
6.70

$$$$
>  <COMPOUND>
O=C1CCc2ccccc2N1CCCN1CCC(CCCCCCCCCO)CC1

>  <ASSAY_ENDPOINT>
pKi

>  <NUMERIC_RESULT>
6.81

$$$$
>  <COMPOUND>
C[N+]1(CCCC(O)(c2ccccc2)c2ccccc2)CCC(C2CC[N+](C)(CCCC(O)(c3ccccc3)c3ccccc3)CC2)CC1 (centres undefined)

>  <ASSAY_ENDPOINT>
pKi

>  <NUMERIC_RESULT>
7.90

$$$$
>  <COMPOUND>
O=C1CCc2ccccc2N1CCCN1CCC(c2ccccc2)CC1

>  <ASSAY_ENDPOINT>
pKi

>  <NUMERIC_RESULT>
5.89

$$$$
>  <COMPOUND>
C[N+](C)(C)C[C@@H]1COC[C@H](C(c2ccccc2)c2ccccc2)O1 (relative stereo)

>  <ASSAY_ENDPOINT>
pKi

>  <NUMERIC_RESULT>
4.95

$$$$
>  <COMPOUND>
O=C(CCN1CCCc2ccccc21)Nc1cccc2cccnc12

>  <ASSAY_ENDPOINT>
pKi

>  <NUMERIC_RESULT>
4.74

$$$$

## Input Provide measured pKi value, entry: O=C(CCN1CCCc2ccccc21)NC1CCCC1
## Output 6.59

## Input Provide measured pKi value, entry: O=C(NC[C@@H]1CCCNC1)[C@H]1CCCN1C(=O)[C@@H]1C[C@@H](O)CN1C(=O)CC(c1ccc(Cl)cc1)(c1ccc(Cl)cc1)c1ccc(Cl)cc1
## Output 6.92

## Input Provide measured pKi value, entry: CC1CCc2ccccc2N1CC(=O)N1CCCCC1 (centres undefined)
## Output 5.05

## Input Provide measured pKi value, entry: CCCCN1CCN(CCCN2C(=O)CCc3ccccc32)CC1
## Output 5.50

## Input Provide measured pKi value, entry: CC(C)NC(=O)[C@H]1CCCN1C(=O)[C@@H]1C[C@@H](O)CN1C(=O)CC(c1ccc(F)cc1)(c1ccc(F)cc1)c1ccc(F)cc1
## Output 6.74

## Input Provide measured pKi value, entry: CN1CCC[C@H]1[C@H]1C[S+]([O-])[C@@](c2ccccc2)(C2CCCCC2)O1 (stereo in doubt; (+)-7)
## Output 7.48

## Input Provide measured pKi value, entry: CCC(C1=C(CCN(C)C)Cc2ccccc21)c1ccccn1 (centres undefined)
## Output 6.18

## Input Provide measured pKi value, entry: CN(C)CCC1=C(Cc2ccncc2)c2ccccc2C1
## Output 5.08

## Input Provide measured pKi value, entry: CN1CC(OC(=O)N(c2ccccc2)c2ccccc2)C1
## Output 6.61

## Input Provide measured pKi value, entry: c1cc2c(cc1CN[C@H]1C3C4CC5C6C4CC3C6C51)OCO2 (some centres undefined)
## Output 5.19
